Value source: patent US11364275B2

- Tested on: rabbit red blood cells
- testDetails: Hemolytic activity
- Type: cell-based
- conditionSummary: 32 μg/mL; relative to Triton X-100
- Method: Hemolytic activity was evaluated using defibrinated rabbit blood in a 96-well plate as described previously. A nonionic surfactant Triton X-100, which is capable of lysing red blood cells (RBCs), was used at 0.1% as a positive control. […] The supernatant was transferred to a new 96-well plate for absorbance measurement at 415 nm using a Cell Imaging Multimode Reader (Cytation 3, BioTek; Winooski, Vt.). […]
Where a SMILES comes first, the peptide text is derived from it. [ ]: non-standard residue; d: D form. The star is where a group is joined. ξ: configuration not given here. Thr(3ξ) = CC(O)[C@H](N)C(=O)O; Decanoyl = CCCCCCCCCC(=O)*; Heptanoyl = CCCCCCC(=O)*; Octanoyl = CCCCCCCC(=O)*; Orn = NCCC[C@H](N)C(=O)O; Dab = NCC[C@H](N)C(=O)O; Bz = O=C(c1ccccc1)*
assayEndpoint: Hemolysis (%)
Numbers only, in %.

As a guide, the following entries are already answered.
CCCCCCC(=O)N[C@@H](CCN)C(=O)N[C@@H](Cc1ccccc1)C(=O)N[C@@H](CCN)C(=O)N[C@H](Cc1ccccc1)C(=O)N[C@@H](CC(C)C)C(=O)N[C@@H](CCN)C(=O)N[C@H](CC(C)C)C(=O)N[C@@H](Cc1ccccc1)C(=O)N[C@@H](CO)C(N)=O [Analogue 7] (Heptanoyl-[Dab]F[Dab][dF]L[Dab][dL]FS-NH2)	5.10
CCCCCCCC(=O)N[C@@H](CCN)C(=O)N[C@H](C(=O)N[C@@H](CCN)C(=O)N[C@H](Cc1ccccc1)C(=O)N[C@@H](CC(C)C)C(=O)N[C@@H](CCN)C(=O)N[C@@H](C(=O)N[C@@H](CC(C)C)C(=O)N[C@@H](CO)C(N)=O)C(C)C)[C@@H](C)CC [Analogue 8, C8-Pat] (Octanoyl-[Dab]I[Dab][dF]L[Dab][dV]LS-NH2)	1.91
CCCCCCCCCC(=O)N[C@@H](CCN)C(=O)N[C@H](C(=O)N[C@H](C(=O)N[C@H](CC(C)C)C(=O)N[C@@H](CC(C)C)C(=O)N[C@@H](CCN)C(=O)N[C@@H](C(=O)N[C@@H](CC(C)C)C(=O)N[C@@H](CO)C(N)=O)C(C)C)C(C)O)[C@@H](C)CC (stereo partly drawn) [Analogue 13] (Decanoyl-[Dab]I[Thr(3ξ)][dL]L[Dab][dV]LS-NH2)	5.06

Count: 2. Required value per item: Hemolysis.
1. CCCCCCCC(=O)N[C@@H](CCCN)C(=O)N[C@H](C(=O)N[C@@H](CCCN)C(=O)N[C@H](Cc1ccccc1)C(=O)N[C@@H](CC(C)C)C(=O)N[C@@H](CCCN)C(=O)N[C@@H](C(=O)N[C@@H](CC(C)C)C(=O)N[C@@H](CO)C(N)=O)C(C)C)[C@@H](C)CC [Analogue 11] (Octanoyl-[Orn]I[Orn][dF]L[Orn][dV]LS-NH2)
2. CC[C@H](C)[C@H](NC(=O)[C@H](CCN)NC(=O)c1ccccc1)C(=O)N[C@@H](CCN)C(=O)N[C@H](Cc1ccccc1)C(=O)N[C@@H](CC(C)C)C(=O)N[C@@H](CCN)C(=O)N[C@@H](C(=O)N[C@@H](CC(C)C)C(=O)N[C@@H](CO)C(N)=O)C(C)C [Analogue 14] (Bz-[Dab]I[Dab][dF]L[Dab][dV]LS-NH2)

Result:
[0.44, 0.71]
